Property: MIC Proteus vulgaris X 19H ATCC 881; scope: individual compounds
Tested on: Proteus vulgaris X 19H ATCC 881
Test: In vitro antibacterial activity, standard agar-dilution test (MIC)
Type: cell-based
Settings: inoculum about 10^4 CFU/ml, 18-24 h at 37° C.
Please reply with the bare figure in µg/mL and do not write the unit itself.

>  <COMPOUND>
CN1CCN(C(=O)C2NC(=O)C3NC(=O)C(NC(=O)C4NC(=O)C5NC(=O)C(Cc6ccc(c(Cl)c6)Oc6cc4cc(c6O)Oc4ccc(cc4Cl)C3O)NC(=O)C(N)c3ccc(O)c(c3)Oc3cc(O)cc5c3)c3ccc(O)c(c3)-c3c(O)cc(O)cc32)CC1 (centres unmarked)

>  <UNITS_OF_MEASURE>
µg/mL

>  <MIC Proteus vulgaris X 19H ATCC 881>
64

$$$$

With those in mind, consider the next compound.
# lookup: MIC Proteus vulgaris X 19H ATCC 881 of NCCCCCCNC(=O)C1NC(=O)C2NC(=O)C(NC(=O)C3NC(=O)C4NC(=O)C(Cc5ccc(c(Cl)c5)Oc5cc3cc(c5O)Oc3ccc(cc3Cl)C2O)NC(=O)C(N)c2ccc(O)c(c2)Oc2cc(O)cc4c2)c2ccc(O)c(c2)-c2c(O)cc(O)cc21 (centres unmarked)
64
